tested.target: CYP3A5 (Homo sapiens)
Sequence (P20815 whole entry): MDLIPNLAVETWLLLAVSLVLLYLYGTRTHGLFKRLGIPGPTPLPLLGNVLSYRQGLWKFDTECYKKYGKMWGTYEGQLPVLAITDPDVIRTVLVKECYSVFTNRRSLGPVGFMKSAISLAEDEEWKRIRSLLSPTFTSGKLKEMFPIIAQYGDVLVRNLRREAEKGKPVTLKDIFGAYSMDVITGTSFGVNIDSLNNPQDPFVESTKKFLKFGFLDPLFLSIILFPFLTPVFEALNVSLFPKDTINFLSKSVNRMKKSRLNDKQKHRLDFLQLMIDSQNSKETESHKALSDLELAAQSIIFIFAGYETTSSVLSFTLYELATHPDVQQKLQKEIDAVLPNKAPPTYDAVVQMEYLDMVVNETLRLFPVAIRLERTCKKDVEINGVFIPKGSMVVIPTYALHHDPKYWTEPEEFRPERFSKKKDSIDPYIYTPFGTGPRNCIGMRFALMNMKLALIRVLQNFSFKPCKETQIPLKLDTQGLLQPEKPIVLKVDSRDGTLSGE
test.protocol: Stability assessed as recombinant human CYP3A5 mediated compound metabolism by measuring parent compound remaining after 30 mins relative to control
Type: ADME
test.parameters: read-out: Stability
metric.name: remaining at 0.5 h

Look up CYP3A5 (Homo sapiens) data: remaining at 0.5 h of CS(=O)(=O)n1cc2c(n1)CN([C@@H]1C[C@H](N)[C@@H](c3cc(F)ccc3F)O[C@@H]1C(F)(F)F)C2 , then report it.
> 95%

====

tested.target: CYP2E1 (Homo sapiens)
Sequence (P05181 whole entry): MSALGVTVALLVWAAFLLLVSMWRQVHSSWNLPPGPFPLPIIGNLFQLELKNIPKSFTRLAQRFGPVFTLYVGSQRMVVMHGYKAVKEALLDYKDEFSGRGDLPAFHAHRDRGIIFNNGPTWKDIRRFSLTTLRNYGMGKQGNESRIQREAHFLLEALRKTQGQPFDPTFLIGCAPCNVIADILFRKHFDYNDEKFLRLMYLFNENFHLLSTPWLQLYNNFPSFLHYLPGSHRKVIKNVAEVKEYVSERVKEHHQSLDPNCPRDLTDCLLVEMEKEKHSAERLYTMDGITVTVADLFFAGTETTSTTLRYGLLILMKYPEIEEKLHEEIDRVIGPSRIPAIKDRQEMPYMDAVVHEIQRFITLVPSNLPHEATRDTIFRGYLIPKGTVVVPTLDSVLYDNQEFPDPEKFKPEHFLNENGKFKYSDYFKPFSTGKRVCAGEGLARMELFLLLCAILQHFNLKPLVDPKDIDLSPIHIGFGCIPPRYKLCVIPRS
test.protocol: Stability assessed as recombinant human CYP2E1 mediated compound metabolism by measuring parent compound remaining after 30 mins relative to control
Assay type: ADME
test.parameters: read-out: Stability
metric.name: remaining at 0.5 h

Look up CYP2E1 (Homo sapiens) data: remaining at 0.5 h of CS(=O)(=O)n1cc2c(n1)CN([C@@H]1C[C@H](N)[C@@H](c3cc(F)ccc3F)O[C@@H]1C(F)(F)F)C2 [COFROGLIPTIN] , then report it.
> 95%
